Each recorded value in this set is attributed to PubChem BioAssay.

target: Receptor tyrosine-protein kinase erbB-2 (Homo sapiens) (UniProt P04626); test: Her2 expression decrease, cell viability multiplex – SKBR3 breast tumor cells, AlphaScreen, ATP viability, primary screen (AID 461); conditions: 18-24 h, at 10 µM, active compounds read low;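 further: lower value means less Her2 protein in the cells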
Sequence (P04626 whole entry, looked up): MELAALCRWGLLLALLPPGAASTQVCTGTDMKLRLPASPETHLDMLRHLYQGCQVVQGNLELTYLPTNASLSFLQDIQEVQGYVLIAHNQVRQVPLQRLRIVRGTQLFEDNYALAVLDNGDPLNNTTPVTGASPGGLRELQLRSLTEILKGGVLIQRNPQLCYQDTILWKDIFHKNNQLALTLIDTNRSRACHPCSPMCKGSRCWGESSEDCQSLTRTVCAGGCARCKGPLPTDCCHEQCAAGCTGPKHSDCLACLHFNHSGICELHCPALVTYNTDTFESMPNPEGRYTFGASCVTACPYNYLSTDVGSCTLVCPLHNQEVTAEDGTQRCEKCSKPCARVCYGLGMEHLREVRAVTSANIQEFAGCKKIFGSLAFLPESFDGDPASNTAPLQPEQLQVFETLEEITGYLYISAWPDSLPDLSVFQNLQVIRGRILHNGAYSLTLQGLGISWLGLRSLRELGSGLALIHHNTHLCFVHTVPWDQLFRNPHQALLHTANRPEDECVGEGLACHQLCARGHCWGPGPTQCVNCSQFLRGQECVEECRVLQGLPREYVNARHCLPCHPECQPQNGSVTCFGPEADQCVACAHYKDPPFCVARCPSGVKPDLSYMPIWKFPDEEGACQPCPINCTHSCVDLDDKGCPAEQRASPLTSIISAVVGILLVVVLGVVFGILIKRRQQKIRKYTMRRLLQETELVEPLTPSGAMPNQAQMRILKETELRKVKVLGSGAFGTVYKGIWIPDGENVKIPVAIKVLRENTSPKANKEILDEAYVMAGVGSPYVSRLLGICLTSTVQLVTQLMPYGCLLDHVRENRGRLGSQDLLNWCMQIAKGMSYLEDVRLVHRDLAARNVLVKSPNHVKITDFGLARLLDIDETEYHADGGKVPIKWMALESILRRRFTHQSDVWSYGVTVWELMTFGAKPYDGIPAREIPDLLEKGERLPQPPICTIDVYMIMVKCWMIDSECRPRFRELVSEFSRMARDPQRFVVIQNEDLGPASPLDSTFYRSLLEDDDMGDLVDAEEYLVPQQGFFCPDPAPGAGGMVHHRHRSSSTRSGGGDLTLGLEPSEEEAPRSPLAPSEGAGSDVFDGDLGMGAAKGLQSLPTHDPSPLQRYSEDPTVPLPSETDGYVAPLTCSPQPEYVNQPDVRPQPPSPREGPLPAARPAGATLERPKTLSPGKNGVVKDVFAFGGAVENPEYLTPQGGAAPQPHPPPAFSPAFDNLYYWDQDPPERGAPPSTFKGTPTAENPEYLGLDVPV
assay.endpoint: Her2 level (%)
Hi! Could you send only the number? It should be in %, unit omitted.

Per the record, COc1ccc(-n2c(Cc3cccn3C)nnc2SCC(=O)Nc2cccc(Cl)c2)cc1 has Her2 level of 89

Per the record, O=C(NC(=O)c1cccc(F)c1)OC[C@@H]1CCCN2CCCC[C@H]12 has Her2 level of 111

Per the record, CCCCn1c2c(c3ccccc31)CCc1nonc1-2 has Her2 level of 108

Per the record, COc1ccccc1N1C(=O)CCC1(C#N)c1ccccc1 (stereo not given) has Her2 level of 102

Per the record, CN1CCN(CCCNC(=O)Cn2ncc3c4ccccc4n(C)c3c2=O)CC1 has Her2 level of 129

Per the record, CCSC1=C(C#N)C(c2ccccc2OC)CC(=O)N1 (stereo not given) has Her2 level of 97.5

Per the record, O=C(O)C1CC=CCC1C(=O)Nc1cccc(F)c1 (stereo not given) has Her2 level of 94

* * *

assay: S. cerevisiae growth inhibition in restrictive medium, OD615, pilot screen, restrictive growth control, yeast lifespan reduction project (AID 706); conditions: OD615, 48 h, at 10 µM, active compounds read high;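 further: modified DeaD lifespan yeast strain shifted to restrictive glucose medium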
assay.endpoint: growth inhibition (%)
Hi! Could you send only the number? It should be in %, unit omitted.

# annotated cases, reported growth inhibition shown
{"columns": ["molecule", "unit.spec", "growth inhibition"],
 "data": [
  ["CC(=O)N1CCN(CCN=CC2=C(O)CC(c3cccs3)CC2=O)CC1 (stereo unspecified)", "%", -2.31],
  ["c1nc(NCC2CCCO2)c2[nH]cnc2n1 (stereo unspecified)", "%", -5.46],
  ["CC(=O)Nc1ccc(S(=O)(=O)N2CCN(C(=O)CCC3CCCC3)CC2)cc1", "%", -1.04],
  ["CC(=O)c1c(C)nc2ccc(Br)cc2c1C(=O)O", "%", 8.3],
  ["CCn1cc(C2=NOC(C(=O)Nc3c(C)nn(Cc4ccc(F)cc4)c3C)C2)c(C)n1 (stereo unspecified)", "%", 2.07]
]}

Per the record, COc1ccccc1NC(=O)C1CCCN(S(=O)(=O)c2cnc[nH]2)C1 (stereo unspecified) has growth inhibition of -3.54

* * *

viability values, listed per item
assay: viability of PTEN-null HCT116 cells – cell-based, HCT116 clonal line, CellTiter-Glo, pilot screen (AID 824); details: HCT116 PTEN-deleted viability, 60 h, at 10 µM, active compounds read low;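 further: 0% = 20 µM Hyamine control and 100% = vehicle cell control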
Records with an inconclusive call do not appear.
Hi! Could you send only the number? It should be in %, unit omitted.

# annotated cases, reported viability shown
{"columns": ["molecule", "unit.spec", "viability"],
 "data": [
  ["COc1cccc(C2C(C(=O)c3ccc(C)o3)=C(O)C(=O)N2CCCN(C)C)c1 (stereo unspecified)", "%", 96.1],
  ["O=C(Nc1nnc(C2CC2)s1)c1cc(-c2ccccc2)nn1-c1ccccc1", "%", 71.9],
  ["CC(=O)NCc1nc2ccccc2n1C(C)C", "%", 95.5],
  ["O=C(c1cnccn1)N(c1ccccc1)C1(C(=O)NC2CCCC2)CCCCC1", "%", 96],
  ["CCOC(=O)COn1c(=O)c(=O)n(O)c2ccccc21", "%", 87.1]
]}

Moving on to the next molecule.
Per the record, O=C(COC(=O)C1CC(=O)N(C2CCCCC2)C1)c1ccc(F)cc1 (stereo unspecified) has viability of 101
